- System under test: Q9UMS6
- Protocol details: holdup assay
- Set-up: key: below the threshold = too weak to quantify, mostly under pKd 3.1 to 4
- Run parameters: plain residues with an end cap or a label only (N-terminal biotin on a linker: ttds)
Readout: pKd

{"Binder": "SSLQSLETSV [ATP2B4, P23634]", "Test result": "below the threshold"}
{"Binder": "QRQARSETLV [HPV59-E6, Q81964]", "Test result": "below the threshold"}
{"Binder": "RHTTSTETAV [HPV30-E6, P36809]", "Test result": "below the threshold"}
{"Binder": "RPLPRKVSQL [DOCK4, Q8N1I0]", "Test result": "below the threshold"}
{"Binder": "RLPKIKETTV [FRMPD4, Q14CM0]", "Test result": "below the threshold"}
